Numbers sourced from ChEMBL document CHEMBL5370535.

test system: Candida tropicalis; assay: Antifungal activity against Candida tropicalis assessed as inhibition of fungal growth incubated for 24 hrs by CLSI based two serial dilution assay; format: functional
Rule: MIC below 20 µM gives Y, anything at or above gives N.

Field: example entries. Status: answers known.
# smi, group
measured = [
    ("CCCCN1C(=O)/C(=N\\Nc2nccs2)c2c(Cl)cccc21", "N"),
    ("O=C1/C(=N\\Nc2nccs2)c2ccccc2N1Cc1ccc(Cl)cc1Cl", "N"),
    ("C=CCN1C(=O)/C(=N\\Nc2nccs2)c2ccccc21", "N"),
    ("CCCCN1C(=O)/C(=N\\Nc2nccs2)c2cc(Br)cc(Br)c21", "Y"),
    ("CCCCN1C(=O)/C(=N\\Nc2nc(-c3ccc(F)cc3F)cs2)c2ccccc21", "N"),
    ("CCCCN1C(=O)/C(=N\\Nc2nccs2)c2ccccc21", "Y"),
    ("CCCCN1C(=O)/C(=N\\Nc2nccs2)c2c(Cl)cc(Cl)cc21", "Y"),
    ("O=C1/C(=N\\Nc2nccs2)c2ccccc2N1Cc1ccc(F)cc1", "N"),
    ("CCCCCCCCN1C(=O)/C(=N\\Nc2nccs2)c2ccccc21", "N"),
    ("O=C1Nc2ccccc2/C1=N/Nc1nccs1", "N"),
]

Lab note: confirm whether the reported MIC for this compound is below 20 µM, equality not counting. compound: CCN1C(=O)/C(=N\Nc2nccs2)c2ccccc21 N

Lab note: confirm whether the reported MIC for this compound is below 20 µM, equality not counting. compound: O=C1/C(=N\Nc2nccs2)c2ccccc2N1Cc1ccc(Cl)cc1 Y

Lab note: confirm whether the reported MIC for this compound is below 20 µM, equality not counting. compound: CCCCN1C(=O)/C(=N\Nc2nccs2)c2ccc(F)cc21 N

Lab note: confirm whether the reported MIC for this compound is below 20 µM, equality not counting. compound: CCCCN1C(=O)/C(=N\Nc2nccs2)c2ccc(Cl)cc21 Y

Lab note: confirm whether the reported MIC for this compound is below 20 µM, equality not counting. compound: CCCCCCN1C(=O)/C(=N\Nc2nccs2)c2ccccc21 Y

Lab note: confirm whether the reported MIC for this compound is below 20 µM, equality not counting. compound: O=C1/C(=N\Nc2nccs2)c2ccccc2N1Cc1ccccc1Cl Y

Lab note: confirm whether the reported MIC for this compound is below 20 µM, equality not counting. compound: CCCCN1C(=O)/C(=N\Nc2nc(C)c(C(C)=O)s2)c2ccccc21 N

Lab note: confirm whether the reported MIC for this compound is below 20 µM, equality not counting. compound: CCCCN1C(=O)/C(=N\Nc2nc(C)c(C(=O)OCC)s2)c2ccccc21 N

Lab note: confirm whether the reported MIC for this compound is below 20 µM, equality not counting. compound: OC(Cn1cncn1)(Cn1cncn1)c1ccc(F)cc1F Y

Lab note: confirm whether the reported MIC for this compound is below 20 µM, equality not counting. compound: CCCCN1C(=O)/C(=N\Nc2nccs2)c2cc(Br)ccc21 N

Lab note: confirm whether the reported MIC for this compound is below 20 µM, equality not counting. compound: O=C1/C(=N\Nc2nccs2)c2ccccc2N1Cc1ccccc1F Y

Lab note: confirm whether the reported MIC for this compound is below 20 µM, equality not counting. compound: CCCCCN1C(=O)/C(=N\Nc2nccs2)c2ccccc21 Y

Lab note: confirm whether the reported MIC for this compound is below 20 µM, equality not counting. compound: CCCCN1C(=O)/C(=N\Nc2nccs2)c2cc(C)ccc21 Y

Lab note: confirm whether the reported MIC for this compound is below 20 µM, equality not counting. compound: CCCCN1C(=O)/C(=N\Nc2nccs2)c2cc([N+](=O)[O-])ccc21 N

Lab note: confirm whether the reported MIC for this compound is below 20 µM, equality not counting. compound: CCCCN1C(=O)/C(=N\Nc2nccs2)c2cccc(F)c21 Y
